system: Klebsiella aerogenes DSM 30053; experiment: fold change of Histamine concentration vs plate DMSO controls (fold change (ratio)); higher = more amine produced, active = hit call of the paper (significant change in both replicates, either direction); settings: incubation time: 27 h, anaerobic, 37 °C
Experimental Endpoint: fold change of Histamine concentration

{"Molecule": "CCCc1nc2c(C)cc(-c3nc4ccccc4n3C)cc2n1Cc1ccc(-c2ccccc2C(=O)O)cc1 [Telmisartan] (20 µM)", "Experimental Endpoint": "fold change of Histamine concentration", "Measured Value": 1.02}
{"Molecule": "CCCCC(CC)CN1CN(CC(CC)CCCC)CC(C)(N)C1 (stereo not drawn) [Hexetidine] (20 µM)", "Experimental Endpoint": "fold change of Histamine concentration", "Measured Value": 0.978}
{"Molecule": "CN1CCN(C2=Nc3cc(Cl)ccc3Nc3ccccc32)CC1 [Clozapine] (20 µM)", "Experimental Endpoint": "fold change of Histamine concentration", "Measured Value": 1.01}
